Entry source: paper PMC9979347

The following compounds have recorded Ki on hCA I (Homo sapiens, UniProt P00915).
Sequence (P00915 whole entry): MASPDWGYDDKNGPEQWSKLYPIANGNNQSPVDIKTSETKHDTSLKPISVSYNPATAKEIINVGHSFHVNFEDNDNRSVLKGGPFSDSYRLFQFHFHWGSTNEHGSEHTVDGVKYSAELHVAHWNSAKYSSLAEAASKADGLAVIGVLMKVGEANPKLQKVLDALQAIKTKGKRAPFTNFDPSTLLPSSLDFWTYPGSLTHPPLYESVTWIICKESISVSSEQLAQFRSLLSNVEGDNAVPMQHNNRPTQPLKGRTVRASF

[
  {
    "compound": "COc1ccc(C(=O)/C=C/c2cccc3ccccc23)cc1S(N)(=O)=O [4j]",
    "test target": "hCA I (Homo sapiens, UniProt P00915)",
    "Ki": "> 10 µM"
  },
  {
    "compound": "COc1ccc(C(=O)/C=C/c2ccccc2Br)cc1S(N)(=O)=O [4c]",
    "test target": "hCA I (Homo sapiens, UniProt P00915)",
    "Ki": "> 10 µM"
  },
  {
    "compound": "COc1ccc(C(=O)/C=C/c2cccc(Cl)c2)cc1S(N)(=O)=O [4b]",
    "test target": "hCA I (Homo sapiens, UniProt P00915)",
    "Ki": "> 10 µM"
  },
  {
    "compound": "COc1ccc(C(=O)/C=C/c2cc3c(cc2Br)OCO3)cc1S(N)(=O)=O [4l]",
    "test target": "hCA I (Homo sapiens, UniProt P00915)",
    "Ki": "> 10 µM"
  },
  {
    "compound": "COc1ccc(C(C)=O)cc1S(N)(=O)=O [compound 3, 5-acetyl-2-methoxybenzene-1-sulfonamide]",
    "test target": "hCA I (Homo sapiens, UniProt P00915)",
    "Ki": "2.32 µM"
  }
]
